Each recorded value in this set is attributed to patent US20110071197A1.

- target_system: Recombinant human LTC4 synthase (Homo sapiens, UniProt Q16873)
- Construct: made in house; host or cells: Pichia pastoris
- Sequence (Q16873 whole entry): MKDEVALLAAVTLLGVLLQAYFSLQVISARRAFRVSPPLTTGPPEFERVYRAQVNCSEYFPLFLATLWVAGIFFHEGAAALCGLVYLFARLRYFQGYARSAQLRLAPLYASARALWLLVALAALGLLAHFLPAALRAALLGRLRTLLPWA
- assay_overview: LTC4 synthase in vitro assay (HTRF detection of LTC4)
- Format: biochemical
- stated_conditions: total concentration of title compound in the assay 10 μM; HTRF method
attribute_measured: inhibition at 10 µM (%)

[[record]]
molecule_smiles = "O=C(Nc1cccc(Oc2ccc(NC(=O)c3ccc(C(F)(F)F)cc3F)c(C(=O)O)c2)c1)c1ccc(C(F)(F)F)cc1"
target_system = "Recombinant human LTC4 synthase (Homo sapiens, UniProt Q16873)"
test_result = 98

[[record]]
molecule_smiles = "O=C(O)c1cc(Oc2ccc(NS(=O)(=O)c3ccc(OC(F)(F)F)cc3)cc2)ccc1NS(=O)(=O)c1ccc(OC(F)(F)F)cc1"
target_system = "Recombinant human LTC4 synthase (Homo sapiens, UniProt Q16873)"
test_result = 100

[[record]]
molecule_smiles = "CCCCOc1ccc(S(=O)(=O)Nc2ccc(Oc3cccc(C(=O)NS(=O)(=O)c4cccc(Cl)c4F)c3)cc2C(=O)O)cc1"
target_system = "Recombinant human LTC4 synthase (Homo sapiens, UniProt Q16873)"
test_result = 99

[[record]]
molecule_smiles = "COc1cc(Cl)ccc1C(=O)Nc1ccc(Oc2ccc(NC(=O)c3ccc(C(C)(C)C)cc3)cc2)cc1C(=O)O"
target_system = "Recombinant human LTC4 synthase (Homo sapiens, UniProt Q16873)"
test_result = 99

